assay.summary: Plasma pentilludin levels after acute 20 mg/kg iv or po administration
Assay type: in vivo
condition.details: plasma; rat, PO 20.0 mg/kg in PEG600, 0.50 h
From the text: […]
experimental.readout: concentration at 0.5 h (ng/mL)
Express the result in ng/mL but write the number alone.

IN: Can you share its concentration at 0.5 h? I mean this compound: COc1c(OCC2CCCC2)cc2c(c1C=O)CC(O)OC2=O (stereo not shown)
OUT: 449

---

assay.summary: Solubility in dosing vehicles
Assay type: physicochemical
condition.details: PEG600 (dosing vehicle); PEG600, gentle heating; read-out: soluble at concentrations up to
experimental.readout: solubility

IN: Quick check: solubility of COc1c(OCC2CCCC2)cc2c(c1C=O)CC(O)OC2=O (stereo not shown) ?
OUT: ≤ 100 mg/mL

---

assay.summary: Plasma pentilludin levels after acute 20 mg/kg iv or po administration
Format: in vivo
condition.details: plasma; rat, PO 20.0 mg/kg in PEG600, 4.0 h
experimental.readout: concentration at 4 h (ng/mL)
Hi! Could you send only the number? It should be in ng/mL, unit omitted.

IN: Fill blank: measured concentration at 4 h of the compound COc1c(OCC2CCCC2)cc2c(c1C=O)CC(O)OC2=O (stereo not shown) is ____.
OUT: 17.1

---

assay.summary: Plasma pentilludin levels after acute 20 mg/kg iv or po administration
Assay type: in vivo
condition.details: plasma; rat, IV 20.0 mg/kg, 0.50 h
experimental.readout: concentration at 0.5 h (ng/mL)
Value expressed in ng/mL; do not type the unit.

IN: Report concentration at 0.5 h for COc1c(OCC2CCCC2)cc2c(c1C=O)CC(O)OC2=O (stereo not shown) please.
OUT: 2920

---

assay.summary: Plasma pentilludin levels after acute 20 mg/kg iv or po administration
Type: in vivo
condition.details: plasma; rat, PO 20.0 mg/kg in PEG600, 2.0 h
experimental.readout: concentration at 2 h (ng/mL)
Lab book: enter the figure in ng/mL, no units written.

IN: # lookup: concentration at 2 h of COc1c(OCC2CCCC2)cc2c(c1C=O)CC(O)OC2=O (stereo not shown) [Pentilludin]
OUT: 146

---

assay.summary: Solubility in dosing vehicles
Assay type: physicochemical
condition.details: 6.82% Captisol in 60:40 PEG600/water (dosing vehicle); 6.82% Captisol in 60:40 PEG600/water, gentle heating; read-out: soluble at concentrations up to
experimental.readout: solubility

IN: Fill in: solubility of COc1c(OCC2CCCC2)cc2c(c1C=O)CC(O)OC2=O (stereo not shown) is ___
OUT: ≤ 100 mg/mL

---

assay.summary: Plasma pentilludin levels after acute 20 mg/kg iv or po administration
Assay type: in vivo
condition.details: plasma; rat, IV 20.0 mg/kg, 0.08 h
Excerpt: […]
experimental.readout: concentration at 0.08 h
Hi, when you answer, please include the unit after the number. Thanks!

IN: // query concentration at 0.08 h value for entry COc1c(OCC2CCCC2)cc2c(c1C=O)CC(O)OC2=O (stereo not shown) [Pentilludin]
OUT: 62.2 µg/mL

This collection of values is drawn from paper doi:10.1101/2025.07.28.667221.
